Below: a set of entries, each annotated with reported solubility kinetic.
# studyConditions: buffer; pH 7.4; 200.0 µM

Past entries and their recorded results:
Given CC(OC(=O)c1ccccc1Oc1ccccc1)C(=O)NC1CC1 (stereo unspecified) , state its recorded solubility kinetic.
> 48.8 µg/mL

Given CC1c2cccn2CCN1S(=O)(=O)c1ccc(F)cc1 (stereo unspecified) , state its recorded solubility kinetic.
> 44.2 µg/mL

Given Cc1cnc(C(=O)OCC(=O)N2CCC(C)CC2)cn1 , state its recorded solubility kinetic.
> 41.6 µg/mL

---
Given NS(=O)(=O)c1cccc(NC(=O)CN2CCN(S(=O)(=O)c3ccc4c(c3)OCCO4)CC2)c1 , state its recorded solubility kinetic.
> 74.5 µg/mL

Given CC(C)(C)C(O)CN1CCCC1.Cl (stereo unspecified) , state its recorded solubility kinetic.
> 31.2 µg/mL

Given COc1ccccc1NC(=O)c1cc(OC)c(OC)cc1[N+](=O)[O-] , state its recorded solubility kinetic.
> 49.8 µg/mL

* * *

Below: a set of entries, each annotated with reported solubility kinetic.
# studyConditions: buffer; pH 7.4; 200.0 µM

Given Cc1cc(C)c2c(=O)[nH]c(SCC(=O)N3CCOCC3)nc2n1 , state its recorded solubility kinetic.
> 50.2 µg/mL

Given S=c1[nH]ccn1Cc1ccccc1 , state its recorded solubility kinetic.
> 28.5 µg/mL

Given O=C(O)Cn1c(=O)c2c3c(sc2n(Cc2ccc(F)cc2)c1=O)CCCC3 , state its recorded solubility kinetic.
> 58.3 µg/mL

---
Given Cc1c[nH]c(=O)c([N+](=O)[O-])c1 , state its recorded solubility kinetic.
> 23.1 µg/mL

Given Cc1cc(OC(=O)c2cccc(F)c2)c([N+](=O)[O-])c(=O)[nH]1 , state its recorded solubility kinetic.
> 43.8 µg/mL

Given CC(=O)c1c(C)nc(Nc2nc(C)c3cc(C)ccc3n2)nc1C , state its recorded solubility kinetic.
> 48.2 µg/mL

Given O=C(/C=C/c1ccc(O)c(O)c1)NC(=O)c1ccccc1O , state its recorded solubility kinetic.
> 44.9 µg/mL

Given Cc1ccc(/C=C2/SC(=S)N(CCC(=O)N3CCOCC3)C2=O)cc1 , state its recorded solubility kinetic.
< 0.4 µg/mL

Given Cc1ccc(NC(=O)COC(=O)c2ccc3c(c2)OCO3)c(C)c1 , state its recorded solubility kinetic.
< 0.7 µg/mL

Given O=C(Nc1cc(Cl)cc(Cl)c1)C1CCCC1 , state its recorded solubility kinetic.
< 0.6 µg/mL

Given COc1cc(NC(=O)Nc2cccc(Cl)c2)c(C(=O)O)cc1OC , state its recorded solubility kinetic.
> 52.6 µg/mL

Given COc1ccc2nc(NC(=O)Nc3ccccc3)sc2c1 , state its recorded solubility kinetic.
< 0.2 µg/mL

Given O=[N+]([O-])c1cccc(S(=O)(=O)NCCc2cccs2)c1 , state its recorded solubility kinetic.
> 46.9 µg/mL

Given Cc1ccnn1-c1ccc(C(=O)NCc2ccccc2CN2CCOCC2)cc1 , state its recorded solubility kinetic.
> 58.6 µg/mL

Given O=C(c1ccccc1)N1CCN(C(=O)c2cccnc2)CC1 , state its recorded solubility kinetic.
> 44.3 µg/mL

* * *

Below: a set of entries, each annotated with reported solubility kinetic.
# studyConditions: buffer; pH 7.4; 200.0 µM

Past entries and their recorded results:
Given O=C(COc1cc(F)ccc1[N+](=O)[O-])NCCN1C(=O)CSC1=O , state its recorded solubility kinetic.
> 53.6 µg/mL

Given CN1CC(C(=O)c2cccs2)C(c2ccc(Cl)cc2)C1 (centres undefined) , state its recorded solubility kinetic.
> 45.9 µg/mL

Given Cc1cccnc1NC(=O)CCNC(=O)c1ccccc1Cl , state its recorded solubility kinetic.
> 47.7 µg/mL

Attention now turns to another entry.
Given O=[N+]([O-])c1ccc(S(=O)(=O)Nc2ccccn2)cc1 , state its recorded solubility kinetic.
> 41.9 µg/mL

* * *

# studyConditions: buffer; pH 7.4; 200.0 µM
Below: a set of entries, each annotated with reported solubility kinetic.
Give the number; µg/mL is assumed, so skip it.

Past entries and their recorded results:
Given COc1ccc(-c2c(C)nc(N)nc2-c2ccc(OC)cc2O)cc1 , state its recorded solubility kinetic.
7.4

Given Cc1nc2c(ccc3c([N+](=O)[O-])cccc32)c(C)c1C , state its recorded solubility kinetic.
0.8

Given COc1cc(NC(=S)N2CCCCC2C)c(OC)cc1Cl (stereo not drawn) , state its recorded solubility kinetic.
44.7

Given COc1ccc(-c2noc(CSc3nc(N)cc(=O)[nH]3)n2)cc1 , state its recorded solubility kinetic.
7.7

Given O=C(NC1CCSc2ccccc21)c1c(F)cccc1Cl (stereo not drawn) , state its recorded solubility kinetic.
7.2

---
Given COC(=O)c1cc(-c2ccccc2)nc2nc(SC)[nH]c(=O)c12 , state its recorded solubility kinetic.
9.8

Given Cc1c(C(=O)NCc2ccco2)oc2c(Cl)cccc12 , state its recorded solubility kinetic.
2.4

Given CC(=O)c1cccc(NC(=O)C(CC(C)C)NC(=O)C2CCCCC2)c1 (stereo not drawn) , state its recorded solubility kinetic.
20.2

* * *

Below: a set of entries, each annotated with reported solubility kinetic.
# studyConditions: buffer; pH 7.4; 200.0 µM

Given O=C1OCc2ccc(NC(=O)c3ccccc3C(=O)O)cc21 , state its recorded solubility kinetic.
> 44.6 µg/mL

Given Cn1c(SCc2ccccc2C#N)nnc1-c1ccncc1 , state its recorded solubility kinetic.
> 46.1 µg/mL

Given COc1ccc(-c2csc(NC(=O)c3ccoc3C)n2)cc1 , state its recorded solubility kinetic.
< 0.3 µg/mL

Given Cc1cccc(OCC(=O)OCC(=O)N2CCN(C(=O)c3ccco3)CC2)c1C , state its recorded solubility kinetic.
> 60.1 µg/mL

Given CC[C@H](C)[C@H](NC(=O)c1ccc(Cl)cc1)C(=O)OCC(=O)c1c(N)n(C)c(=O)n(C)c1=O , state its recorded solubility kinetic.
27.7 µg/mL

---
Given Cc1ccc(OCC(=O)O/N=C(\N)c2ccccn2)cc1C , state its recorded solubility kinetic.
38.1 µg/mL

Given CCc1ccc(OCc2cnc(Cl)s2)cc1 , state its recorded solubility kinetic.
< 0.5 µg/mL

Given Nc1[nH]c(=O)[nH]c(=O)c1N=Nc1ccc(C(=O)O)cc1 , state its recorded solubility kinetic.
> 41.3 µg/mL

* * *

# studyConditions: buffer; pH 7.4; 200.0 µM
quantity: solubility kinetic (µg/mL)
Give the number; µg/mL is assumed, so skip it.

Past entries and their recorded results:
Given O=C(Nc1cc(C(F)(F)F)ccc1N1CCOCC1)c1cnccn1 , state its recorded solubility kinetic.
1.1

Given COc1ccc(CCNC(=O)c2cccnc2SC)cc1 , state its recorded solubility kinetic.
16

Given Cc1cc(=O)oc2c(C(=O)c3ccccc3)c(OCC(N)=O)ccc12 , state its recorded solubility kinetic.
5.6

Given C#CCOc1ccc(/C=C2/C(=O)ON=C2C)cc1Br , state its recorded solubility kinetic.
42.7

---
Given O=C(Nc1cc2c3c(c1)CC(=O)N3CCC2)c1cccc(F)c1 , state its recorded solubility kinetic.
10.5

Given O=C(CN1C(=O)c2ccccc2C1=O)Nc1ccccc1 , state its recorded solubility kinetic.
18.9

Given COc1cc2c(cc1OC)C(c1ccccc1O)NCC2 (centres undefined) , state its recorded solubility kinetic.
37.3

Given COc1ccc(C(=O)OCC(=O)NCc2ccc3c(c2)OCO3)cc1S(=O)(=O)N1CCOCC1 , state its recorded solubility kinetic.
12.2

Given O=C(CCSCc1ccccc1Cl)NC1CCCCC1 , state its recorded solubility kinetic.
8.1

Given Cc1ccc(NC(=O)CC(=O)Nc2ccc(C)cc2C)c(C)c1 , state its recorded solubility kinetic.
6.3

* * *

# studyConditions: buffer; pH 7.4; 200.0 µM
quantity: solubility kinetic

Given COc1cc(NS(=O)(=O)c2ccc(NC(=S)NC(C)=O)cc2)nc(OC)n1 , state its recorded solubility kinetic.
> 61.7 µg/mL

---
Given CCc1nonc1NC(=O)c1oc2ccc(C)cc2c1C , state its recorded solubility kinetic.
< 0.2 µg/mL

Given CCN(C(=O)CSc1nnc(C)c(=O)[nH]1)c1cccc2ccccc12 , state its recorded solubility kinetic.
> 53.2 µg/mL

* * *

# studyConditions: buffer; pH 7.4; 200.0 µM
quantity: solubility kinetic

Past entries and their recorded results:
Given COc1cc2ccccc2cc1C(=O)N1CCOCC1 , state its recorded solubility kinetic.
> 40.7 µg/mL

Given O=C(OCC(=O)N1CCCC1=O)c1cc(Cl)ccc1O , state its recorded solubility kinetic.
> 44.7 µg/mL

Given O=c1ccc(-c2ccccc2)no1 , state its recorded solubility kinetic.
> 26 µg/mL

---
Given Cc1ccc(S(=O)(=O)N2CCCCC2)cc1NC(=O)C1CC1 , state its recorded solubility kinetic.
> 48.4 µg/mL

Given CCP(=O)(c1cccc([N+](=O)[O-])c1)c1cccc([N+](=O)[O-])c1 , state its recorded solubility kinetic.
> 48 µg/mL

Given COc1ccc(O)c(C2=Nc3ccccc3N=C(c3ccccc3)C2)c1 , state its recorded solubility kinetic.
< 0.4 µg/mL

Given CC(=O)C1=C(C)NC(=S)NC1c1cc([N+](=O)[O-])ccc1O (configuration not stated) , state its recorded solubility kinetic.
> 46.1 µg/mL

Given COC(=O)c1nc(N)sc1C(C)C , state its recorded solubility kinetic.
> 30 µg/mL

Given CCCCN(CC)Cc1c(C)[nH]c2c(ccc3ccccc32)c1=O , state its recorded solubility kinetic.
> 48.4 µg/mL

Given CCOc1ccc(NC(=O)c2ccc(-c3csc(C)n3)cc2)cc1 , state its recorded solubility kinetic.
< 0.4 µg/mL

Given COc1ccc(OC)c(NC(=O)NCc2cccnc2)c1 , state its recorded solubility kinetic.
> 43.1 µg/mL

Given Cn1c2ccccc2c2cc([N+](=O)[O-])ccc21 , state its recorded solubility kinetic.
< 0.2 µg/mL
